# TESTED_ON: Programmed Death 1 (PD-1) (UniProt Q15116 25-288, limits assumed)
# Sequence (Q15116 25-288 limits assumed): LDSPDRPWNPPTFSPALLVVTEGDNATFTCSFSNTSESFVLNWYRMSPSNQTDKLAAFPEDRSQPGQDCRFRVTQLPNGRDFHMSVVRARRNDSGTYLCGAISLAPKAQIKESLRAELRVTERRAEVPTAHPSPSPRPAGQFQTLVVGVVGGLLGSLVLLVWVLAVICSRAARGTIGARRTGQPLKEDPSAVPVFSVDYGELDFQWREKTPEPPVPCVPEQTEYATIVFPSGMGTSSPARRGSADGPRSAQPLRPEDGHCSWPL
# TEST_PROTOCOL: rank of the clone among the 16 humanized clones by FACS binding data; higher number = worse
ENDPOINT: Ranking, FACS data
Keep it simple and answer with nothing but the number.

Would you mind telling me what Ranking, FACS data value was observed for BAP049-hum12 (antibody, human IgG4 S228P, kappa, V domains shown, also called Clone No. 12) VH: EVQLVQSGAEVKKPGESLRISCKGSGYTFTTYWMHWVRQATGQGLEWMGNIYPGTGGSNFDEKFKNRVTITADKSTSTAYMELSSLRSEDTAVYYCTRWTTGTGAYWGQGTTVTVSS VL: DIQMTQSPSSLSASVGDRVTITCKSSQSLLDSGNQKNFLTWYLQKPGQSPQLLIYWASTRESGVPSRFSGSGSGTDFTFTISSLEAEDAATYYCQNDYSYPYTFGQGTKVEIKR ? 3

I would be grateful if you could share the reported Ranking, FACS data for BAP049-hum04 (antibody, human IgG4 S228P, kappa, V domains shown, also called Clone No. 4) VH: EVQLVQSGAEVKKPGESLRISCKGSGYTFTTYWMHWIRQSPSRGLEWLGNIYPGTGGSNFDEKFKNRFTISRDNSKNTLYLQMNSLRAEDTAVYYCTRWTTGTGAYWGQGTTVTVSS VL: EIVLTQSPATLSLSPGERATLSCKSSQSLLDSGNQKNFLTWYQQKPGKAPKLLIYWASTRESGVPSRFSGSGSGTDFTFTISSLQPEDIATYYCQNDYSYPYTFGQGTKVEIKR . 14

Data origin: patent US20210121563A1
